Origin of values: patent EP3807270B1

Measured inhibition at 10 min, 10 µM of individual entries
target.or.system: CYP2D6 (Homo sapiens)
Construct: tissue BD-Gentest 452117; host or cells: human liver microsomes
Sequence (P10635 whole entry): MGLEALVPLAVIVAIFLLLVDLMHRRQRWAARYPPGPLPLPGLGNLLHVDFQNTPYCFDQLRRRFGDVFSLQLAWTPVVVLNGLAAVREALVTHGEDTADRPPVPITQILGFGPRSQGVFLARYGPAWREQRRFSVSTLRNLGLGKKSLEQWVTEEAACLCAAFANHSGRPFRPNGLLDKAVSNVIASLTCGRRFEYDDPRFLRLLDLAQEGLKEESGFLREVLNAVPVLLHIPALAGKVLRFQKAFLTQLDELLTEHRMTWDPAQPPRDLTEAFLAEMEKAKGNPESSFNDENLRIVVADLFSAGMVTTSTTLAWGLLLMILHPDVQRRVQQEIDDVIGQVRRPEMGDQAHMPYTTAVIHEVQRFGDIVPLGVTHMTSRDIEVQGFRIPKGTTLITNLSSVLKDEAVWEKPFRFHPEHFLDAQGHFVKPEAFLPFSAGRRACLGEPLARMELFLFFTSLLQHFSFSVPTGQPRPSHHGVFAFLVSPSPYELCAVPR
experiment.notes: CYP inhibition assay in human liver microsome
Assay type: in vitro ADME
condition.info: human liver microsomes, probe dextromethorphan, 10µM test compound, dextromethorphan substrate, <0: not or weak inhibitor, read-out: CYP 2D6 inhibition %@10µM
Note: unit % is implicit; provide only the numeric part.

Look over these answered cases.
Please give the documented inhibition at 10 min, 10 µM of C[C@@H]1CN(c2ccc(C(F)(F)F)c3nccnc23)C[C@H](CN2CCN(c3cc4c(cn3)CCNC4)CC2)O1 [Example 91]
14

Entry C[C@@H]1CN(c2ccc(C#N)c3ncccc23)C[C@H](CN2CCN(c3cnc4c(c3)CNCC4)CC2)O1 [Example 21] needs its inhibition at 10 min, 10 µM filled in; supply it.
-4.5

Supply reported inhibition at 10 min, 10 µM belonging to this compound: C[C@@H]1CN(c2ccc(C#N)c3ncccc23)C[C@H](CN2CCN(c3cc4c(cn3)C[C@H](C)NC4)CC2)O1 (single isomer, unassigned) [Example 76]
6

State its inhibition at 10 min, 10 µM: C[C@@H]1CN(c2ccc(C#N)c3ncccc23)C[C@H](CN2C[C@H]3CN(c4ccc5c(n4)CCNC5)CC[C@H]32)O1 (single isomer, unassigned) [Example 55]
10.5

Given C[C@@H]1CN(c2ccc(C#N)c3ncccc23)C[C@H](CN2CC3[C@H](C2)OCCN3c2ccc3c(n2)CCNC3)O1 (stereo in doubt) [Example 53] , respond with its inhibition at 10 min, 10 µM.
24

Others:
Indicate the recorded inhibition at 10 min, 10 µM value for this compound: C[C@@H]1CN(c2ccc(C#N)c3ncccc23)C[C@H](CN2CCN(c3cc4c(cn3)CNC4)CC2)O1 [Example 18]
13

Item C[C@@H]1CN(c2ccc(C#N)c3ncccc23)C[C@H](CN2CCCN(c3nc4c(s3)CNCC4)CC2)O1 [Example 33] : provide inhibition at 10 min, 10 µM
-10.5

Using the record for C[C@@H]1CN(c2ccc(C#N)c3ncccc23)C[C@H](CN2CCN(c3ccc4c(c3)CCNC4CO)CC2)O1 (stereo partly shown) [Example 24] , state its measured inhibition at 10 min, 10 µM.
-9.5

Read the entry C[C@@H]1CN(c2ccc(C#N)c3ncccc23)C[C@H](CN2CCN(c3cnc4c(c3)CCNC4)CC2)O1 [Example 23] and write its reported inhibition at 10 min, 10 µM.
3.5

Answer with the recorded inhibition at 10 min, 10 µM for the compound listed here: C[C@@H]1CN(c2ccc(C#N)c3ncccc23)C[C@H](CN2CCN(c3ccc4c(n3)CNC4)CC2)O1 [Example 30]
17.5

Determine from records and report inhibition at 10 min, 10 µM for C[C@@H]1CN(c2ccc(C#N)c3ncccc23)C[C@H](CN2CCN(c3ccc4c(c3)CCNC4)CC2)O1 [Example 5]
0.5

Given the compound COC1CNCc2ccc(N3CCN(C[C@H]4CN(c5ccc(C#N)c6ncccc56)C[C@@H](C)O4)CC3)cc21 (stereo partly shown) [Example 58] , write its reported inhibition at 10 min, 10 µM.
13

Please report the measured inhibition at 10 min, 10 µM for C[C@@H]1CN(c2ccc(C#N)c3nccnc23)C[C@H](CN2CCN(c3cc4c(cn3)C[C@H](C)NC4)CC2)O1 (single isomer, unassigned) [Example 81]
3.5
